Attribute: Kd
# target_or_test_system: T1, Human complement Factor D, mature (human, UniProt P00746 27-253)
# T1 construct: In the TR-FRET assay the factor D was bought from Complement Technology; In the hemolysis assay it was the factor D of C1q-depleted human serum; also called human Factor D; hFD
# T1 sequence (P00746 27-253): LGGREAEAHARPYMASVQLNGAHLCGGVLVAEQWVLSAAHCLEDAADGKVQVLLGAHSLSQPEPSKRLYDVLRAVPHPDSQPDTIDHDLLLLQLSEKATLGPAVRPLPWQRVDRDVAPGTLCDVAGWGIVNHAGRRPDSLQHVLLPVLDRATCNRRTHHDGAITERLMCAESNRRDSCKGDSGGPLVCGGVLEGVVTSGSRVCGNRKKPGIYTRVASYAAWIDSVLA
# test_method_notes: SPR (Biacore T200): Fab captured with anti-huFab kit, human Factor D injected, 25 C, 1:1 model;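 also: sensorgrams were corrected by subtracting a blank injection of running buffer before fitting kinetic and affinity constants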

Some entries whose results are on file:
[
  {
    "binder": "hu20D12.v2.14 Fab (Fab, V domains shown) VH: EVQLVQSGAEVKKPGASVKVSCKASGYTFTSYYMYWVRQAPGQGLEWIGEINPTSGETNFNEKFKSRATLTVDTSTSTAYLELSSLRSEDTAVYYCAREGGFAYWGQGTLVTVSS VL: DIQMTQSPSSLSASVGDRVTITCKASQNVDTDVAWFQQKPGKAPKGLIRSASSRYSGVPSRFSGSGSGTDFTLTISSLQPEDFATYYCQQYNNYPLTFGQGTKVEIKR",
    "observed_property": "Kd",
    "reported_value": "< 0.01 nM"
  },
  {
    "binder": "hu20D12.v2.10 Fab (Fab, V domains shown) VH: EVQLVQSGAEVKKPGASVKVSCKASGYTFTSYYMYWVRQAPGQGLEWIGEINPTSGGTNFNEKFKSRATLTVDTSTSTAYLELSSLRSEDTAVYYCAREGGFAYWGQGTLVTVSS VL: DIQMTQSPSSLSASVGDRVTITCKASQNVDTDVAWFQQKPGKAPKGLIYSASSRKSGVPSRFSGSGSGTDFTLTISSLQPEDFATYYCQQYNNYPLTFGQGTKVEIKR",
    "observed_property": "Kd",
    "reported_value": "6 nM"
  }
]

Documented Kd of AFD.v14 Fab (Fab, V domains shown, Variant of lampalizumab; also called SIESD.N103S) VH: EVQLVQSGPELKKPGASVKVSCKASGYTFTNYGMNWVRQAPGQGLEWMGWINTYTGETTYAEDFKGRFVFSLDTSVSTAYLQISSLKAEDTAVYYCEREGGVSNWGQGTLVTVSS VL: DIQVTQSPSSLSASVGDRVTITCITSTSIESDMNWYQQKPGKVPKLLISGGNTLRPGVPSRFSGSGSGTDFTLTISSLQPEDVATYYCLQSDSLPYTFGQGTKVEIKR : 0.0233 nM

Source: patent US20170145112A1
